Biological target: T1, FZD7 CRD (Homo sapiens, UniProt O75084)
T1 construct: D45-S169; GPI anchor signal (C); expressed in transfected cells; host or cells: CHO cells, lentiviral pLenti-puro
Assay: Immunofluorescence of anti-FZD5 Fab binding to CHO cells overexpressing Frizzled CRD
Parameters: key: −: no binding; +: very weak binder; ++: weak binder; +++: good binder; ++++: very good binder
Measurement Type: Immunofluorescence binding, Frizzled CRD overexpressed on CHO cells: FZD7

Molecule | Experimental Value
Fab-2905: anti-FZD5 Fab with antibody variable region Fv-2905; CDR SEQ ID NOs: 35, 36, 44, 83, 120, 157 (antibody, V domains shown) VH: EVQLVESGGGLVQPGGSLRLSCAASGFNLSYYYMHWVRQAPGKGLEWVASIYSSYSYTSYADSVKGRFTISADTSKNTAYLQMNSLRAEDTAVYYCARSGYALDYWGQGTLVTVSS VL: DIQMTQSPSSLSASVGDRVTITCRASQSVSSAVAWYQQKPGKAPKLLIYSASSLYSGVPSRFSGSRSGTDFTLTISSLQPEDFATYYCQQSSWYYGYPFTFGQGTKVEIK | +
